target of assay: T1, ZFP SBS#541 (synthetic, UniProt P08047)
T1 chain: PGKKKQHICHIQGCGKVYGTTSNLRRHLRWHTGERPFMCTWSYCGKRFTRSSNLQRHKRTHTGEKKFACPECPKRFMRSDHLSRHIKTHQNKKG
procedure summary: EMSA
experimental conditions: tags: MBP fusion
readout: Kd (nM)
# number only, unit nM dropped from output

Give me measured Kd, please, for this binder: GGGGAGGAT (dsDNA) DNA 1: GGGGAGGAT DNA 2: ATCCTCCCC
3
